The measured values listed here are drawn from patent US20080261994A1.

# test.system: aggrecanase-1 (Homo sapiens)
# Sequence (O75173 213-837, species assumed): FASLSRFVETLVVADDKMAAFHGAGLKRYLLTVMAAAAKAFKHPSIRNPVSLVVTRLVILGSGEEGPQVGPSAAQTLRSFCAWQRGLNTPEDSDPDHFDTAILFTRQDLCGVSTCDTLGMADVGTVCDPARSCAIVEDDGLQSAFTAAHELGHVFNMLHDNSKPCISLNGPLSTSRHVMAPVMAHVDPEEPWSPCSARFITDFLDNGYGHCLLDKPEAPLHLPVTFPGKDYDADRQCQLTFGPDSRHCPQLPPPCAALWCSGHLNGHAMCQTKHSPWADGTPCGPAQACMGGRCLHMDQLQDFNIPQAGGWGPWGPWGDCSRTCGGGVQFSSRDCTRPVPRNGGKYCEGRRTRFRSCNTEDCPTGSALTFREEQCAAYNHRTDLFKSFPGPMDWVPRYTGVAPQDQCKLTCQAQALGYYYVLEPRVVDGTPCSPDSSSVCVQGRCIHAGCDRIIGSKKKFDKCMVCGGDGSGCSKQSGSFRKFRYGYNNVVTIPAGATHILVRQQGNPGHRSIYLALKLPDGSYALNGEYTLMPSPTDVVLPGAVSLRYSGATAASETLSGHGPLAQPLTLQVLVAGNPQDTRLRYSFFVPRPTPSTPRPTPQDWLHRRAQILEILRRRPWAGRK
# experiment.description: Aggrecanase-1 inhibitory action (Particle Assay, GAG release from aggrecan-containing polyacrylamide particles)
# Assay type: biochemical
# protocol.conditions: aggrecanase-1 inhibitory action; read-out: IC50 AG1 (Experimental Example 1)
pIC50: −log10 of the molar value.

{"molecule": "O=C(O)[C@]1(NS(=O)(=O)c2ccc(-c3cc(CF)on3)s2)C[C@@H]1c1ccccc1", "pIC50": "> 7.00"}
{"molecule": "O=C(O)[C@]1(NS(=O)(=O)c2ccc(-c3noc4c3CCCC4)s2)C[C@@H]1c1ccccc1", "pIC50": "≤ 6.00"}
{"molecule": "O=C(Nc1cccc(C2CC2(NS(=O)(=O)c2ccc(-c3ccc(Cl)cc3)s2)C(=O)O)c1)N1CCOCC1 (centres unmarked)", "pIC50": "> 6.00"}
{"molecule": "O=C(Nc1cccc(C2CC2(NS(=O)(=O)c2ccc(-c3ccc(Cl)cc3)cc2)C(=O)O)c1)c1cccnc1 (centres unmarked)", "pIC50": "> 6.00"}
{"molecule": "O=C(O)C1(NS(=O)(=O)c2ccc(-c3ccc(Cl)cc3)s2)CC1c1cccc(OCCN2CCOCC2)c1 (centres unmarked)", "pIC50": "> 6.00"}
{"molecule": "O=C(NC1CC1)c1ccc(S(=O)(=O)NC2(C(=O)O)CC2c2ccccc2)s1 (centres unmarked)", "pIC50": "≤ 5.00"}
{"molecule": "CC(C)(C)OC(=O)N1CCC(Nc2cccc(C3CC3(NS(=O)(=O)c3ccc(-c4ccc(Cl)cc4)cc3)C(=O)O)c2)CC1 (centres unmarked)", "pIC50": "> 6.00"}
{"molecule": "O=C(CN1CCOCC1)Nc1cccc(C2CC2(NS(=O)(=O)c2ccc(-c3cc(C(F)(F)F)on3)s2)C(=O)O)c1 (centres unmarked)", "pIC50": "> 6.00"}

---

# test.system: MMP-1 (Homo sapiens, UniProt P03956)
# Sequence (P03956 100-469, species assumed): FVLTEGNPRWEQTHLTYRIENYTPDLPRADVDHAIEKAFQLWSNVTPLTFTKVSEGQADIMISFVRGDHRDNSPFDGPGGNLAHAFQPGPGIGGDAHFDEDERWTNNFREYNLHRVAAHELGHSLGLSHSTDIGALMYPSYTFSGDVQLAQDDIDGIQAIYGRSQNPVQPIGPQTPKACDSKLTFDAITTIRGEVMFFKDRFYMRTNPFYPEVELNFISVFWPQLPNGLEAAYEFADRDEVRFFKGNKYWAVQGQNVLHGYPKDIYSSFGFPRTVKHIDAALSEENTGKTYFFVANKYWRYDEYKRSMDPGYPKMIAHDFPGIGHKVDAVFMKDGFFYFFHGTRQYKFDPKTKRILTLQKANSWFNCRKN
# experiment.description: MMP-1 inhibitory action (Type I collagen Activity Measurement kit, FITC-labeled collagen type I)
# Assay type: biochemical
# protocol.conditions: Experimental Example 2; read-out: IC50 MMP1
recorded.metric: IC50

{"molecule": "C[C@]1(c2ccccc2)C[C@@]1(NS(=O)(=O)c1ccc(-c2ccc3c(c2)OCCO3)s1)C(=O)O [Example 2-485]", "recorded.metric": "IC50", "result": "≥ 10 µM"}
{"molecule": "CC1[C@H](c2ccccc2)[C@]1(NS(=O)(=O)N1CC=C(c2ccc(Cl)cc2)CC1)C(=O)O (some centres unmarked) [Example 2-441]", "recorded.metric": "IC50", "result": "≥ 1 µM"}
{"molecule": "CC1C(c2ccccc2)C1(NS(=O)(=O)c1ccc(Cc2ccccc2)s1)C(=O)O (centres unmarked) [Example 2-508]", "recorded.metric": "IC50", "result": "≥ 1 µM"}
{"molecule": "Cc1cn(-c2ccc(S(=O)(=O)N[C@@]3(C(=O)O)C(C)[C@@H]3c3ccccc3)s2)cn1 (some centres unmarked) [Example 2-367]", "recorded.metric": "IC50", "result": "≥ 10 µM"}
{"molecule": "Cc1cc(C2CC2(NS(=O)(=O)c2ccc(-c3cc(C(F)(F)F)on3)s2)C(=O)O)on1 (centres unmarked) [Example 2-311]", "recorded.metric": "IC50", "result": "≥ 1 µM"}
{"molecule": "O=C(O)C1(NS(=O)(=O)c2ccc(-c3ccc(Cl)cc3)s2)CC1(CN1CCOCC1)c1ccccc1 (centres unmarked) [Example 2-341]", "recorded.metric": "IC50", "result": "≥ 10 µM"}
{"molecule": "O=C(NCC1(c2ccccc2)CC1(NS(=O)(=O)c1ccc(-c2ccc(Cl)cc2)s1)C(=O)O)c1cccnc1 (centres unmarked) [Example 2-394]", "recorded.metric": "IC50", "result": "≥ 1 µM"}
{"molecule": "C[C@]1(c2ccccc2)C[C@@]1(NS(=O)(=O)c1ccc(-c2ccc(C#N)c(F)c2)s1)C(=O)O [Example 2-593]", "recorded.metric": "IC50", "result": "≥ 1 µM"}
{"molecule": "O=C(O)C1(NS(=O)(=O)c2ccc(OCc3ccc(Cl)cc3Cl)cc2)C2CCCc3ccccc3C21 (centres unmarked) [Example 2-363]", "recorded.metric": "IC50", "result": "≥ 10 µM"}
{"molecule": "Cn1cc(-c2ccc(S(=O)(=O)N[C@@]3(C(=O)O)C[C@]3(C)c3ccccc3)s2)nn1 [Example 2-587]", "recorded.metric": "IC50", "result": "≥ 1 µM"}
{"molecule": "O=C(c1ccc(Cl)cc1)c1ccc(S(=O)(=O)N[C@@]2(C(=O)O)C[C@@H]2c2ccccc2)s1 [Example 2-307]", "recorded.metric": "IC50", "result": "≥ 10 µM"}
